Assign kcat/Km (mM^-1 · min^-1) to each entry below.
target: T1, Boc-Glu(OBzl)-Ala-Arg-MCA
T1 chain: EAR
Lab note: record the figure alone, no unit after it.

# input Param item = Medaka EP-1 serine protease domain (wild-type) (protein) VVGGVNAEKGAWPWMVSLHWRGRHGCGASLIGRDWLLTAAHCVYGKNTHLQYWSAVLGLHAQSSMNSQEVQIRQVDRIIINKNYNRRTKEADIAMMHLQQPVNFTEWVLPVCLASEDQHFPAGRRCFIAGWGRDAEGGSLPDILQEAEVPLVDQDECQRLLPEYTFTSSMLCAGYPEGGVDSCQGDSGGPLMCLEDARWTLIGVTSFGVGCGRPERPGAYARVSAFTSWIAETRRSSFSDLD ; retrieve measured kcat/Km (mM^-1 · min^-1).
# output 34

# input # get_value(readout='kcat/Km (mM^-1 · min^-1)', item= Medaka EP-1 serine protease domain mutant P193E (protein) VVGGVNAEKGAWPWMVSLHWRGRHGCGASLIGRDWLLTAAHCVYGKNTHLQYWSAVLGLHAQSSMNSQEVQIRQVDRIIINKNYNRRTKEADIAMMHLQQPVNFTEWVLPVCLASEDQHFPAGRRCFIAGWGRDAEGGSLPDILQEAEVPLVDQDECQRLLPEYTFTSSMLCAGYEEGGVDSCQGDSGGPLMCLEDARWTLIGVTSFGVGCGRPERPGAYARVSAFTSWIAETRRSSFSDLD )
# output 12
